- Tested on: PRKACA (mouse)
- assayComment: split-luciferase competition binding
- assaySetup: compound 10.0 µM; accession and sequence are those of the human protein
endpointLabel: inhibition (%)

Worked set:
>  <compound>
Cc1[nH]c(/C=C2\C(=O)Nc3ccc(S(=O)(=O)Cc4c(Cl)cccc4Cl)cc32)c(C)c1C(=O)N1CCC[C@@H]1CN1CCCC1

>  <uom>
%

>  <inhibition>
1

$$$$
>  <compound>
N#C/C(=C\c1ccc(O)c(O)c1)C(N)=S

>  <uom>
%

>  <inhibition>
4

$$$$
>  <compound>
O=c1cc(N2CCOCC2)nc2c3ccccc3ccn12

>  <uom>
%

>  <inhibition>
0

$$$$
>  <compound>
O=c1cc(N2CCOCC2)oc2c1ccc1ccccc12

>  <uom>
%

>  <inhibition>
0

$$$$
>  <compound>
O=C(Nc1cc(C(F)(F)F)cc(C(F)(F)F)c1)c1cc(Cl)ccc1O

>  <uom>
%

>  <inhibition>
0

$$$$

a = CS(=O)c1ccc(-c2nc(-c3ccc(F)cc3)c(-c3ccncc3)[nH]2)cc1 (stereo unspecified)
b = CS(=O)(=O)CCNCc1nc(-c2ccc3ncnc(Nc4ccc(OCc5cccc(F)c5)c(Cl)c4)c3c2)cs1
c = CC(C)N(CCC(=O)c1ccc2ccccc2c1)Cc1ccccc1
Sort the 3 compounds by inhibition; largest first, smallest last. Lab note: final answer is the ordered label list.
b, c, a
(b: 8%, c: 1%, a: 0%)

I = Nc1ncnc2[nH]nc(Nc3ccc(F)cc3)c12
II = Brc1c(Br)c(Br)c2[nH]nnc2c1Br
III = Cn1cc(C2=C(c3cn(CCCSC(=N)N)c4ccccc34)C(=O)NC2=O)c2ccccc21
IV = CN1CC[C@H](c2c(O)cc(O)c3c(=O)cc(-c4ccccc4Cl)oc23)[C@H](O)C1
Arrange these compounds by their inhibition, starting with the largest number. Write the labels out in the order the request specifies.
III, I, IV, II
(III: 62%, I: 9%, IV: 5%, II: 0%)

I = CC[C@@H](CO)Nc1nc(NCc2ccccc2)c2ncn(C(C)C)c2n1
II = COc1cc2nccc(Oc3ccc(NC(=O)Nc4ccc(F)cc4F)c(F)c3)c2cc1OC
III = N#C/C(=C\c1ccc(O)c(O)c1)C(=O)NCc1ccccc1
IV = Cn1cc(C2=C(c3ccc(Cl)cc3Cl)C(=O)NC2=O)c2ccccc21
List items by inhibition in falling order. Answer format: list of labels, ordered as asked.
II, IV, III, I

* * *

- targetUnderTest: PRKCQ (human)
- assayComment: split-luciferase competition binding
- assaySetup: compound 10.0 µM
endpointLabel: inhibition (%)

a = O=S(=O)(c1cccc2c(O)nccc12)N1CCCNCC1
b = COc1cc2c(Nc3ccc(NC(=O)c4ccccc4)cc3)ncnc2cc1OCCCN1CCOCC1
Compare inhibition: is it lower for a or for b ? Select an item and report its label.
b

* * *

- targetUnderTest: RPS6KA4 KD1 (human)
- assayComment: split-luciferase competition binding
- assaySetup: compound 10.0 µM
endpointLabel: inhibition (%)

>  <moleculeSmiles>
CO[C@@H]1[C@H](N(C)C(=O)c2ccccc2)C[C@H]2O[C@]1(C)n1c3ccccc3c3c4c(c5c6ccccc6n2c5c31)C(=O)NC4

>  <inhibition / %>
70

$$$$
>  <moleculeSmiles>
N#C/C(=C\c1ccc(O)c(O)c1)C(N)=S

>  <inhibition / %>
0

$$$$
>  <moleculeSmiles>
O=C1NC(=O)c2c1c1c3ccccc3[nH]c1c1[nH]c3ccccc3c21

>  <inhibition / %>
55

$$$$

A = CCN(CC)CCNC(=O)c1c(C)[nH]c(/C=C2\C(=O)Nc3ccc(F)cc32)c1C
B = Cn1cc(C2=C(c3ccc(Cl)cc3Cl)C(=O)NC2=O)c2ccccc21
API: POST /compare with A and B ; response names the item with higher inhibition. When you have decided, please share the label of that item.
A

* * *

- targetUnderTest: RPS6KA3 KD1 (human)
- assayComment: split-luciferase competition binding
- assaySetup: compound 10.0 µM
endpointLabel: inhibition (%)

Would you please look over these solved cases?
>  <molecule>
O=C1NC(=O)c2c1c1c3ccccc3[nH]c1c1[nH]c3ccccc3c21

>  <endpointLabel>
inhibition

>  <uom>
%

>  <endpointResult>
23

$$$$
>  <molecule>
CS(=O)c1ccc(-c2nc(-c3ccc(F)cc3)c(-c3ccncc3)[nH]2)cc1 (stereo unspecified)

>  <endpointLabel>
inhibition

>  <uom>
%

>  <endpointResult>
2

$$$$
>  <molecule>
O=S(=O)(c1cccc2c(Cl)cccc12)N1CCCNCC1

>  <endpointLabel>
inhibition

>  <uom>
%

>  <endpointResult>
0

$$$$
>  <molecule>
Cc1cc2nc3c(=O)[nH]c(=O)nc-3n(C)c2cc1C=O

>  <endpointLabel>
inhibition

>  <uom>
%

>  <endpointResult>
0

$$$$
>  <molecule>
NC(=O)c1ccc(-c2nc(-c3ccccn3)c(-c3ccc4c(c3)OCCO4)[nH]2)cc1

>  <endpointLabel>
inhibition

>  <uom>
%

>  <endpointResult>
0

$$$$
>  <molecule>
O=c1cc(N2CCOCC2)nc2c3ccccc3ccn12

>  <endpointLabel>
inhibition

>  <uom>
%

>  <endpointResult>
0

$$$$
>  <molecule>
Cc1cc(F)c(Nc2ncnc3cc(OCc4ccccc4)ccc23)cc1O

>  <endpointLabel>
inhibition

>  <uom>
%

>  <endpointResult>
0

$$$$
>  <molecule>
NC(=O)c1sc(-c2ccsc2)cc1N

>  <endpointLabel>
inhibition

>  <uom>
%

>  <endpointResult>
0

$$$$

A = CCN(CC)CCNC(=O)c1c(C)[nH]c(/C=C2\C(=O)Nc3ccc(F)cc32)c1C
B = Cc1ccc(-c2nn(C(C)(C)C)c3ncnc(N)c23)cc1
Between A and B , whose recorded inhibition is greater? Write down the label attached to your selection.
A
(A: 59%, B: 8%)

* * *

- targetUnderTest: RPS6KA2 KD1 (human)
- assayComment: split-luciferase competition binding
- assaySetup: compound 10.0 µM
endpointLabel: inhibition (%)

Worked set:
>  <moleculeSmiles>
O=c1cc(N2CCOCC2)nc2c3ccccc3ccn12

>  <inhibition (%)>
0

$$$$
>  <moleculeSmiles>
O=C1NC(=O)c2c1c1c3ccccc3[nH]c1c1[nH]c3ccccc3c21

>  <inhibition (%)>
42

$$$$
>  <moleculeSmiles>
O=S(=O)(c1cccc2c(O)nccc12)N1CCCNCC1

>  <inhibition (%)>
0

$$$$

P = COc1cc2c(Nc3ccc(NC(=O)c4ccccc4)cc3)ncnc2cc1OCCCN1CCOCC1
Q = CS(=O)(=O)CCNCc1nc(-c2ccc3ncnc(Nc4ccc(OCc5cccc(F)c5)c(Cl)c4)c3c2)cs1
Choose between P and Q : whose measured inhibition value is numerically larger? Identify your pick by its label.
P

* * *

- targetUnderTest: PRKCD (human)
- assayComment: split-luciferase competition binding
- assaySetup: compound 10.0 µM
endpointLabel: inhibition (%)

Example entries begin here.
>  <compound>
O=C1NC(=O)c2c1c1c3ccccc3[nH]c1c1[nH]c3ccccc3c21

>  <targetUnderTest>
PRKCD (human)

>  <uom>
%

>  <endpointResult>
17

$$$$
>  <compound>
Brc1c(Br)c(Br)c2[nH]nnc2c1Br

>  <targetUnderTest>
PRKCD (human)

>  <uom>
%

>  <endpointResult>
0

$$$$
>  <compound>
CCN(CC)CCCCN1c2ccccc2Oc2ccc(Cl)cc21

>  <targetUnderTest>
PRKCD (human)

>  <uom>
%

>  <endpointResult>
0

$$$$

1 = COc1ccc(Cl)cc1NC(=O)Nc1cc(C)nc2ccccc12
2 = N#C/C(=C(/N)Sc1ccc(N)cc1)c1ccccc1C(F)(F)F
Could you tell me which of these two has the smaller inhibition figure? First: 1 Second: 2 In your reply, give the label of the chosen option.
1
(1: 0%, 2: 1%)

P = C=CC(=O)c1ccc2ccccc2c1
Q = Cn1cc(C2=C(c3ccc(Cl)cc3Cl)C(=O)NC2=O)c2ccccc21
R = N#C/C(=C\c1ccc(O)c(O)c1)C(=O)NCc1ccccc1
Put the items in sequence by inhibition, from largest down. # list labels per requested ordering
Q, R, P

P = O=C1c2ccccc2-c2n[nH]c3cccc1c23
Q = O=C1Nc2ccc(I)cc2/C1=C/c1cc(Br)c(O)c(Br)c1
Which has the smaller recorded inhibition, P or Q ? Returns: label corresponding to the selected item.
P
(P: 0%, Q: 2%)

I = Cc1cc(F)c(Nc2ncnc3cc(OCc4ccccc4)ccc23)cc1O
II = O=C(c1ccc(Nc2nccc(-c3cc4ccccc4s3)n2)cc1)N1CCC(N2CCCC2)CC1
Could you please tell me which of these two has the higher inhibition: I or II ? Indicate which entry you chose by stating its label.
II

* * *

- targetUnderTest: RPS6KA6 KD1 (human)
- assayComment: split-luciferase competition binding
- assaySetup: compound 10.0 µM
endpointLabel: inhibition (%)

Reference set (2 entries):
>  <moleculeSmiles>
COc1cc2ncnc(Nc3ccc(F)c(Cl)c3)c2cc1OCCCN1CCOCC1

>  <targetUnderTest>
RPS6KA6 KD1 (human)

>  <uom>
%

>  <inhibition>
0

$$$$
>  <moleculeSmiles>
N#CC(=C(\N)Sc1ccccc1N)/C(C#N)=C(/N)Sc1ccccc1N

>  <targetUnderTest>
RPS6KA6 KD1 (human)

>  <uom>
%

>  <inhibition>
0

$$$$

A = Brc1c(Br)c(Br)c2[nH]nnc2c1Br
B = O=C1Nc2ccc(I)cc2/C1=C/c1cc(Br)c(O)c(Br)c1
C = O=c1cc(N2CCOCC2)nc2c3ccccc3ccn12
Rank entries according to their inhibition, from the largest number down. Provide your answer as the labels ordered per the instruction.
B, A, C
